- EXPERIMENTAL_SYSTEM: T1, resistin antigen (UniProt Q9HD89 19-108, limits assumed)
- T1 construct: Used for the Octet assays and the monophage ELISAs, where only 'resistin antigen' is printed; tags not known; also called resistin antigen protein
- T1 sequence (looked up): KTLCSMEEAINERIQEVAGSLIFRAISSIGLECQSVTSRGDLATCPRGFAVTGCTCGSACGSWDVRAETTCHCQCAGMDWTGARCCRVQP
- PROCEDURE_DETAILS: Octet, resistin antigen on the biosensor, antibody in solution

BINDER	Kd
RETN-5A2_LS_2B02 (antibody, human IgG1, V domains shown, Light chain shuffled variant of RETN-5A2, tested as IgG) VH: QVQLVQSGAEGRKPGSSVKVSCKVSGDTFSSYAISWVRQAPGQGLEWMGGIIPIFGAADYAQKFKGRVTISADESTSTAYMELSSLRSEDTAVYYCAKGPDYYGSFDPWGQGTLITVSS VL: DIQMTQSPGTLSLSAGERATLSCRASQSVRGSYLAWYQQKPGQAPRLLIYGTSSRAPGIPDRFSGSGSGTDFTLTISSLEPEDFAVYYCQQRGDWLYTFGQGTKVEIKR	≤ 1 nM
